- protocol: Plasma exposure after the last dose in DIO mini-pigs
- Type: in vivo, Göttingen mini-pigs
- stated_conditions: Göttingen, minipig, plasma, sc; CCK derivative high dose group (10 nmol/kg); read-out: AUCexposure (0-24 h) after last dose
Starred links: 1 amine or outer side, 2 acyl side, 3 side chain; linkers in the order of their positions; H or OH if unused. Non-standard residues stand in square brackets, D forms with d. Residues, ends and D or L forms follow the SMILES beside them. *: point of attachment. Phe(4-CH2SO3H) = N[C@@H](Cc1ccc(CS(=O)(=O)O)cc1)C(=O)O; C18 diacid = O=C(O)CCCCCCCCCCCCCCCCC(=O)*; γGlu = O=C(O)[C@H](CCC(=O)[*:2])N[*:1]; NMeF = CN[C@@H](Cc1ccccc1)C(=O)O; dNMeD = CN[C@H](CC(=O)O)C(=O)O; Nle = CCCC[C@H](N)C(=O)O; AEEA = NCCOCCOCC(=O)O
quantity_kind: AUC(0-t) (µM·h)
Please give a number only; it is taken to be in µM·h.

input: Can you look up the measured AUC(0-t) of CCCC[C@H](NC(=O)[C@H](Cc1ccc(CS(=O)(=O)O)cc1)NC(=O)[C@H](CC(=O)O)NC(=O)COCCOCCNC(=O)COCCOCCNC(=O)CC[C@H](NC(=O)CCCCCCCCCCCCCCCCC(=O)O)C(=O)O)C(=O)NCC(=O)N[C@@H](Cc1c[nH]c2ccccc12)C(=O)N[C@@H](CCCC)C(=O)N(C)[C@H](CC(=O)O)C(=O)N(C)[C@@H](Cc1ccccc1)C(N)=O [Example 3] ({C18 diacid-γGlu-AEEA-AEEA}-D[Phe(4-CH2SO3H)][Nle]GW[Nle][dNMeD][NMeF]-NH2) for me?
output: 27.1

Origin of the recorded values: patent US20170008928A1
